Exercise: for every item that follows, state its recorded melting point.

Hi team, please reply with melting point for each item in this list.
1. COc1ccc(-c2[nH]c3ncnc(Nc4cccc(Cl)c4)c3c2C)cc1
2. CCOC(=O)N(C)C(=O)N(O)C(C)c1cc(C)sc1C (stereo unspecified)
3. N#CC1CCN(C(c2ccccc2)(c2ccccc2)c2ccccc2)CC1
4. COc1cc2ncnc(N3CCN(C(=O)Nc4ccccc4)CC3)c2cc1OC
5. CC1(NC(=NC#N)Nc2cccnc2)CCC1
6. C#CC12CCCN(CC1)C2 (stereo unspecified)

["265 to 268 °C", "111 to 112 °C", "206 °C", "121 to 123 °C", "210 to 212 °C", "41 to 42 °C"]
